molecular target: Kir3.1/Kir3.4 (Homo sapiens, UniProt P48544+P48549); experiment: Inhibition of recombinant human GIRK1/4 channel
Sequence (P48549 whole entry): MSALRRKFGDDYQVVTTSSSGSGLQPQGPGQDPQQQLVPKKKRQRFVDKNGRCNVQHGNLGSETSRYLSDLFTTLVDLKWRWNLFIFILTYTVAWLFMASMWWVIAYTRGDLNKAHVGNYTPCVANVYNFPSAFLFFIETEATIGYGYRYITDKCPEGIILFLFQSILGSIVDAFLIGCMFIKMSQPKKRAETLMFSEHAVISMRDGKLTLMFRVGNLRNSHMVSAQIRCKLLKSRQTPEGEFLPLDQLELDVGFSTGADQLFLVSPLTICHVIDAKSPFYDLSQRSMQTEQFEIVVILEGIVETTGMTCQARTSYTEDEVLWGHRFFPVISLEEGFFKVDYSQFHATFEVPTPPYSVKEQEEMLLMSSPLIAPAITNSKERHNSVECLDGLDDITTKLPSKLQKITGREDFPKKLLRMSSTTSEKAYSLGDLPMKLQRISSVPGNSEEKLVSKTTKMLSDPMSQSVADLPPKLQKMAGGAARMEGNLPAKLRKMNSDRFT
Sequence (P48544 whole entry): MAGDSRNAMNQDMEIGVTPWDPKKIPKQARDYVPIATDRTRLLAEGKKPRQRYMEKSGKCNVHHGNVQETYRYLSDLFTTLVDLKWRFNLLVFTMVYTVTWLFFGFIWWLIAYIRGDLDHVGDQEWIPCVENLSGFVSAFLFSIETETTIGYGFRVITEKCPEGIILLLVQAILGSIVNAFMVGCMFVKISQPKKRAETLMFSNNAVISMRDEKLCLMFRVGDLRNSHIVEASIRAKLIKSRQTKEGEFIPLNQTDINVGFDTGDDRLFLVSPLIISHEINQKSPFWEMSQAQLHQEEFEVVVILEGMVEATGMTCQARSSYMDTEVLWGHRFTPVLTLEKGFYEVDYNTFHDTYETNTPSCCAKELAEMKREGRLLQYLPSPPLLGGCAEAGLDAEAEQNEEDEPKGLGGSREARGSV
pIC50: −log10 of the molar value.
experimental.endpoint: pIC50

molecule=COc1ncc(Cl)c2c1c(=O)cc(CO)n2-c1c(Cl)cccc1Cl recorded_result=7.57
molecule=Cc1cc(=O)c2c(F)cncc2n1-c1c(Cl)cc(C#CCN2CCOCC2)cc1Cl recorded_result=6.66
molecule=Cc1cc(=O)c2c(F)cncc2n1-c1c(Cl)cc(C#N)cc1Cl recorded_result=6.72
molecule=COc1ncc(C)c2c1c(=O)cc(CO)n2-c1c(Cl)cccc1Cl recorded_result=6.54
molecule=Cc1cc(=O)c2c(F)cncc2n1-c1c(Cl)cc(C#CCO)cc1Cl recorded_result=6.85

I: O=c1cc(CO)n(-c2c(Cl)cccc2Cl)c2c(Cl)cnc(OC[C@H](O)CO)c12
II: COc1cc(Cl)c(-n2c(C)cc(=O)c3c(F)cncc32)c(Cl)c1
III: O=c1cc(CO)n(-c2c(Cl)cccc2Cl)c2c(Cl)cnc(OC(CO)CO)c12
IV: CSc1c(C#N)c(=O)c2ccc(F)cc2n1-c1c(Cl)cccc1Cl
V: Cc1cc(=O)c2c(F)cncc2n1-c1c(Cl)cc(OCC(O)CO)cc1Cl (stereo not given)
(Q) Rank by pIC50 (largest to smallest). Returns: the labels listed in the requested order.
(A) II, V, IV, I, III
(II: 8.70, V: 7.96, IV: 7.30, I: 7.00, III: 6.60)

P: O=c1cc(CO)n(-c2c(Cl)cccc2Cl)c2c(Cl)cnc(OC[C@@H](O)CO)c12
Q: O=c1cc(CO)n(-c2c(Cl)cccc2Cl)c2c(Cl)cnc(OCC(O)CO)c12 (stereo not given)
(Q) From the items above, decide which of P and Q has the lower pIC50 reading. Answer format: the label of the selected item.
(A) P
(P: 6.82, Q: 7.10)

---

assay: Apparent permeability across apical to basolateral side in MDCK cells; type: ADME, cell-based, Canis lupus familiaris; conditions: dog
experimental.endpoint: Papp A→B (×10⁻⁶ cm/s)

molecule=COc1ncc(C)c2c1c(=O)cc(CO)n2-c1c(Cl)cccc1Cl experimental_endpoint="Papp A→B" units_symbol="×10⁻⁶ cm/s" recorded_result=8.5
molecule=Cc1cc(=O)c2c(OCCOCCOCCOCCO)ncc(Cl)c2n1-c1c(Cl)cccc1Cl experimental_endpoint="Papp A→B" units_symbol="×10⁻⁶ cm/s" recorded_result=23
molecule=COc1ncc(Cl)c2c1c(=O)cc(CO)n2-c1c(Cl)cccc1Cl experimental_endpoint="Papp A→B" units_symbol="×10⁻⁶ cm/s" recorded_result=22.6
molecule=Cc1cc(=O)c2c(F)cncc2n1-c1c(Cl)cc(C#N)cc1Cl experimental_endpoint="Papp A→B" units_symbol="×10⁻⁶ cm/s" recorded_result=13.9
molecule="Cc1cc(=O)c2c(OCC(O)CC(O)CO)ncc(Cl)c2n1-c1c(Cl)cccc1Cl (configuration not stated)" experimental_endpoint="Papp A→B" units_symbol="×10⁻⁶ cm/s" recorded_result=16.6
molecule=Cc1cc(=O)c2c(F)cncc2n1-c1c(Cl)cc(C#CCO)cc1Cl experimental_endpoint="Papp A→B" units_symbol="×10⁻⁶ cm/s" recorded_result=26.6

P: CS(=O)(=O)CCCOc1ncc(Cl)c2c1c(=O)cc(CO)n2-c1c(Cl)cccc1Cl
Q: O=c1cc(CO)n(-c2c(Cl)cccc2Cl)c2c(Cl)cnc(OC[C@@H](O)CO)c12
(Q) // compare measured Papp A→B, left P , right Q , return larger // respond with label for picked entry
(A) P
(P: 10.1 ×10⁻⁶ cm/s, Q: 5 ×10⁻⁶ cm/s)
